experiment: HPLC retention time as indicator of relative hydrophobicity; format: physicochemical; conditions: chromatographic, Kromasil 100 C18 (4.6 mm × 40 mm, 3 μm), linear gradient 2 to 100% B over 12 min, 1 mL/min; A 0.1% aqueous TFA, B 0.1% TFA in CH3CN; used as indicator of relative hydrophobicity
No end group written: not given here.
Where tR (min), HPLC retention time (method B) equals or exceeds 5 min, the correct label is yes; where it does not, the label is no.

Some solved entries appear below for comparison.
| substance | assignedLabel |
| --- | --- |
| H-RINSAKDDAAGLQIAKKLFKKILKKL-NH2 [flg15-BP16] | yes |
| KKLFKKILKYLVWNQPVRGFKVYE [BP100-Pep13] | yes |
| KKVVFWVKFK-RINSAKDDAAGLQIA-OH [KSLW-flg15, peptide conjugate, KSL-W at N-terminus, flg15 at C-terminus] | no |

INPUT: Check the entry H-FKLFKKILKVLKKVVFWVKFK-NH2 [BP13-KSLW] : does tR (min), HPLC retention time (method B) equal or exceed 5 min?
OUTPUT: yes

INPUT: Check the entry VWNQPVRGFKVYEKKLFKKILKYL-NH2 [Pep13-BP100] : does tR (min), HPLC retention time (method B) equal or exceed 5 min?
OUTPUT: yes

INPUT: Check the entry H-KKVVFWVKFKYGIHTH-NH2 [KSLW-PIP1] : does tR (min), HPLC retention time (method B) equal or exceed 5 min?
OUTPUT: no

INPUT: Check the entry Ac-KKLFKKIK(COC3H7)KYL-RINSAKDDAAGLQIA-OH [BP387-flg15, peptide conjugate, lipopeptide BP387 at N-terminus, flg15 at C-terminus] : does tR (min), HPLC retention time (method B) equal or exceed 5 min?
OUTPUT: yes

---

assay: HPLC retention time as indicator of relative hydrophobicity; format: physicochemical; conditions: chromatographic, Kromasil 100 C18 (4.6 mm × 40 mm, 3 μm), linear gradient 2 to 100% B over 12 min, 1 mL/min; A 0.1% aqueous TFA, B 0.1% TFA in CH3CN; used as indicator of relative hydrophobicity
No end group written: not given here.
reportedMetric: tR (min), HPLC retention time (method B)
The number alone won't do; follow it with the unit.

The following substances have reported results that may help.
| substance | reading |
| --- | --- |
| RINSAKDDAAGLQIA-KKLFKKILKYL-NH2 [flg15-BP100, peptide conjugate, flg15 at N-terminus, BP100 at C-terminus] | 6.29 min |
| KKLFKKILKKL-RINSAKDDAAGLQIA-OH [BP16-flg15, peptide conjugate, BP16 at N-terminus, flg15 at C-terminus] | 4.59 min |
| H-YGIHTHKKVVFWVKFK-NH2 [PIP1-KSLW] | 4.81 min |
| Ac-KKLfKKILKK(COC3H7)L-RINSAKDDAAGLQIA-OH [BP475-flg15, peptide conjugate, lipopeptide BP475 at N-terminus, flg15 at C-terminus] | 6.03 min |
| KKLFKKILKYL-RINSAKDDAAGLQIA-OH [BP100-flg15, peptide conjugate, BP100 at N-terminus, flg15 at C-terminus] | 4.96 min |
| H-KKVVFWVKFKFKLFKKILKVL-NH2 [KSLW-BP13] | 6.26 min |

Alright, here's another substance for you.
INPUT: I am curious: what tR (min), HPLC retention time (method B) value has been reported for VWNQPVRGFKVYEKKLFKKILKKL-NH2 [Pep13-BP16] ?
OUTPUT: 5.70 min

---

test system: tobacco leaves; test: Effect of peptide infiltration on tobacco leaves (phytotoxicity); type: in vivo; conditions: 100 μL infiltrated into mesophyll, lesion diameter 48 h after infiltration, at least three leaves; ± confidence interval (α = 0.05)
reportedMetric: Size of the lesions in infiltrated tobacco leaves at 150 μM (cm)
Reply numerically in cm, unit not repeated.

| substance | reading |
| --- | --- |
| KKLFKKILKYL-FKLFKKILKVL-NH2 [BP100-BP13, peptide conjugate, BP100 at N-terminus, BP13 at C-terminus] | 1.36 |
| KKLFKKILKKL-FKLFKKILKVL-NH2 [BP16-BP13, peptide conjugate, BP16 at N-terminus, BP13 at C-terminus] | 1.15 |

INPUT: Find Size of the lesions in infiltrated tobacco leaves at 150 μM (tobacco leaves) for the entry KKVVFWVKFK-RINSAKDDAAGLQIA-OH [KSLW-flg15, peptide conjugate, KSL-W at N-terminus, flg15 at C-terminus]
OUTPUT: 0.13

---

Test system: tobacco leaves
Test: Effect of peptide infiltration on tobacco leaves (phytotoxicity)
Format: in vivo
Details: 100 μL infiltrated into mesophyll, lesion diameter 48 h after infiltration, at least three leaves; ± confidence interval (α = 0.05)
Method: Peptide conjugates were also assayed for their toxicity in tobacco leaves (Fig. 3, Table SC). After 48 h of infiltration, melittin caused a necrotic area of 0.70 and 2.17 cm in diameter at 50 and 250 μM, respectively. […] Peptide conjugates were evaluated for their effect on infiltration on tobacco leaves as described previously ([41]). […] The appearance of symptoms on the leaves was followed for 48 h after infiltration and measured as lesion diameter.
No end group written: not given here.
reportedMetric: Size of the lesions in infiltrated tobacco leaves at 150 μM (cm)
Reply numerically in cm, unit not repeated.

| substance | unitName | reading |
| --- | --- | --- |
| Ac-KKLFKKIK(COC3H7)KYL-RINSAKDDAAGLQIA-OH [BP387-flg15, peptide conjugate, lipopeptide BP387 at N-terminus, flg15 at C-terminus] | cm | 0.33 |
| RINSAKDDAAGLQIA-KKLFKKILKYL-NH2 [flg15-BP100, peptide conjugate, flg15 at N-terminus, BP100 at C-terminus] | cm | 0.80 |
| H-KKVVFWVKFKFKLFKKILKVL-NH2 [KSLW-BP13] | cm | 0.88 |

INPUT: I am curious: what Size of the lesions in infiltrated tobacco leaves at 150 μM value has been reported for KKVVFWVKFK-NH2 [KSL-W, reference compound] ?
OUTPUT: 0.37

INPUT: I am curious: what Size of the lesions in infiltrated tobacco leaves at 150 μM value has been reported for KKLFKKILKKL-RINSAKDDAAGLQIA-OH [BP16-flg15, peptide conjugate, BP16 at N-terminus, flg15 at C-terminus] ?
OUTPUT: 0.31

INPUT: I am curious: what Size of the lesions in infiltrated tobacco leaves at 150 μM value has been reported for FKLFKKILKVL-KKLFKKILKYL-NH2 [BP13-BP100, peptide conjugate, BP13 at N-terminus, BP100 at C-terminus] ?
OUTPUT: 1.20

INPUT: I am curious: what Size of the lesions in infiltrated tobacco leaves at 150 μM value has been reported for KKLfKKILKYL-FKLFKKILKVL-NH2 [BP143-BP13, peptide conjugate, BP143 at N-terminus, BP13 at C-terminus] ?
OUTPUT: 0.40

---

tested on: horse erythrocytes; conditions: TRIS buffer pH 7.2, 1 h, 37°C, absorbance 540 nm, relative to melittin 100 μM, ± confidence interval (α = 0.05)
No end group written: not given here.
Rule: Percent hemolysis at 375 μM below 5% gives yes (1), anything at or above gives no (0).

| substance | assignedLabel |
| --- | --- |
| KKLFKKILKKLVWNQPVRGFKVYE [BP16-Pep13] | yes (1) |
| KKLfKKILKYL-FKLFKKILKVL-NH2 [BP143-BP13] | no (0) |
| RINSAKDDAAGLQIA-KKLFKKILKYL-NH2 [flg15-BP100] | no (0) |
| KKVVFWVKFK-NH2 [KSL-W, reference compound] | no (0) |

INPUT: I wonder whether Ac-KKLfKKILKK(COC3H7)L-RINSAKDDAAGLQIA-OH [BP475-flg15] has Percent hemolysis at 375 μM below 5%. Can you tell?
OUTPUT: yes (1)

INPUT: I wonder whether VWNQPVRGFKVYEKKLFKKILKYL-NH2 [Pep13-BP100] has Percent hemolysis at 375 μM below 5%. Can you tell?
OUTPUT: no (0)

INPUT: I wonder whether FKLFKKILKVL-NH2 [BP13, reference compound] has Percent hemolysis at 375 μM below 5%. Can you tell?
OUTPUT: no (0)

INPUT: I wonder whether FKLFKKILKVL-KKLFKKILKYL-NH2 [BP13-BP100] has Percent hemolysis at 375 μM below 5%. Can you tell?
OUTPUT: no (0)

INPUT: I wonder whether VWNQPVRGFKVYE-OH [Pep13] has Percent hemolysis at 375 μM below 5%. Can you tell?
OUTPUT: yes (1)

INPUT: I wonder whether KKLFKKILKYLVWNQPVRGFKVYE [BP100-Pep13] has Percent hemolysis at 375 μM below 5%. Can you tell?
OUTPUT: no (0)
